molecular target: T1, Human c-Met-Flis-Fc ECD (human); assay: ELISA, coated ECD-Fc, antibody 2.143 ng/mL
T1 construct: also called human c-Met extracellular domain (ECD)-Fc-Flis fusion; Human cMet-ECD-Fc-Flis
T1 sequence (chain, as listed by the source limits assumed): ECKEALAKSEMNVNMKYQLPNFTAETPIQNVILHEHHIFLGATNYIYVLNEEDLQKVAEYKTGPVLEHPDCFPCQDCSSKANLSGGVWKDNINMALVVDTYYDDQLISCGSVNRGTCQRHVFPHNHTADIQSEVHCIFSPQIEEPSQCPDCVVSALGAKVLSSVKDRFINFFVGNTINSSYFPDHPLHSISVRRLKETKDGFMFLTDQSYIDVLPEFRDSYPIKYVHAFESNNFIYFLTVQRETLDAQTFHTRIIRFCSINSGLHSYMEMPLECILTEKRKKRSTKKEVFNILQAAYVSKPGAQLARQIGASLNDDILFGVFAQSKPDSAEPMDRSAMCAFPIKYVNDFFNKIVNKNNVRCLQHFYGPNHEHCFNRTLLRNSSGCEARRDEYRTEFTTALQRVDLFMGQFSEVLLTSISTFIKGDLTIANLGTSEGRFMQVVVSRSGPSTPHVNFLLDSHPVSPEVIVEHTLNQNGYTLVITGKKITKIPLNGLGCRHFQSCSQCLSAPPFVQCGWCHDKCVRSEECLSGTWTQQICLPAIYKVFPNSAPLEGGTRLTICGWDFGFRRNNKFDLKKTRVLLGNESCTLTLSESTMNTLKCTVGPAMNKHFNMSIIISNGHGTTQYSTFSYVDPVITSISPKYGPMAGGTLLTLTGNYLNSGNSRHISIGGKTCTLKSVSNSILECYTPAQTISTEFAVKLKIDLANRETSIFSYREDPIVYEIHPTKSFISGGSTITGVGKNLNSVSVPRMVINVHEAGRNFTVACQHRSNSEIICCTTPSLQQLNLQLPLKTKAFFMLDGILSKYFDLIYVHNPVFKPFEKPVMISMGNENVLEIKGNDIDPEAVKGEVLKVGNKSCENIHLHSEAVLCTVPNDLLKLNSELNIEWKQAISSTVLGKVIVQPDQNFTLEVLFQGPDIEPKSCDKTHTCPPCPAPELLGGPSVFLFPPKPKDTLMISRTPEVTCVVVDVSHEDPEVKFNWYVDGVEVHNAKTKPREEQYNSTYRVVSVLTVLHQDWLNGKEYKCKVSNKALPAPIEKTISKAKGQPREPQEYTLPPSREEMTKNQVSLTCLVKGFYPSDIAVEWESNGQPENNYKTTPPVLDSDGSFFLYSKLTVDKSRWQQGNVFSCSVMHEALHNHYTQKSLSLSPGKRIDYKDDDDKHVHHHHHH
VALUE KIND: Average A450 nm

BINDER	OBSERVED MEASUREMENT
D11-S17Y (antibody, human IgG2, kappa, V domains shown, Human engineered IgG2, kappa) VH: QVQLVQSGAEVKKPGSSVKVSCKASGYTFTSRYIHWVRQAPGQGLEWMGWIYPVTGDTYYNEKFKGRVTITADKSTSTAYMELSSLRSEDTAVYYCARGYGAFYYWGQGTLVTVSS VL: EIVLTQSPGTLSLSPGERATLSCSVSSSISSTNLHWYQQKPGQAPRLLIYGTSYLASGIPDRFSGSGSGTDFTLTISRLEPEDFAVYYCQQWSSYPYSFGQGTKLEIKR	2.14 A450 nm

// switching to the query binder
Reported Average A450 nm, binder C8-co-16 (antibody, human IgG2, kappa, V domains shown, Called IgG4, kappa) VH: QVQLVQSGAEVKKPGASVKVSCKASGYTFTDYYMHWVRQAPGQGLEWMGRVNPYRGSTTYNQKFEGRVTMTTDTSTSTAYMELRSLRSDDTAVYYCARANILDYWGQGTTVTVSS VL: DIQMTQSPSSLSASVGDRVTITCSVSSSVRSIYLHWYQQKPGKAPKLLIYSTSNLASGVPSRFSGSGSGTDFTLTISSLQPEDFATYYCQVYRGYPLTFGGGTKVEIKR : ____
2.89 A450 nm
